Where do these numbers come from? They come from patent US20260116963A1.

Here, each record is paired with measured IC50, HEK-Blue IL-13Ra1/IL-4Ra STAT6-SEAP reporter assay data.
Biological target: human IL-13 (human, UniProt P35225 25-146, limits assumed)
Sequence (P35225 other isoform, or with tags, fused parts or gaps limits assumed): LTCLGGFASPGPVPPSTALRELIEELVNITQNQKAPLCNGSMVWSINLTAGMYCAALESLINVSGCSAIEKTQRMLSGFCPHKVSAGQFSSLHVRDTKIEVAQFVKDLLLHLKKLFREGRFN
Assay: cell-based or functional assay
State just the number; it will be interpreted in µg/mL.

>  <binder>
AbP (antibody, human IgG1, kappa, V domains shown) VH: QVTLRESGPALVKPTQTLTLTCTVSGASLSAYSVNWIRQPPGKALEWLAMIWGDGKVVYNSALKSRLTISKDTSKNQVVLTMTNMDPVDTATYYCAGDGYFPYAMDHWGQGSLVTVSS VL: DIVMTQSPDSLSVSLGERATINCRASKSVDSYGNSYMHWYQQKPGQPPKLLIYWASNLESGVPDRFSGSGSGTDFTLTISSLQAEDVAVYYCQQNNEDPRTFGGGTKVEIKR

>  <measurement>
0.152

$$$$

[in] Suppose we examine the binder AbN (antibody, human IgG1, kappa, V domains shown) VH: QVTLRESGPALVKPTQTLTLTCTVSGASLSAYSVNWIRQPPGKALEWLAMIWGDGKIVYNSALKSRLTISKDTSKNQVVLTMTNMDPVDTATYYCAGDGYYPYAMDNWGQGSLVTVSS VL: DIVMTQSPDSLSVSLGERATINCRASESVDYYGHSYMHWYQQKPGQPPKLLIYLASNLESGVPDRFSGSGSGTDFTLTISSLQAEDVAVYYCQQNNEDPRTFGGGTKVEIKR ; what IC50, HEK-Blue IL-13Ra1/IL-4Ra STAT6-SEAP reporter assay value has been reported?
[out] 0.14

[in] Would you mind telling me what IC50, HEK-Blue IL-13Ra1/IL-4Ra STAT6-SEAP reporter assay value was observed for AbD (antibody, human IgG1, kappa, V domains shown) VH: QVTLRESGPALVKPTQTLTLTCTVSGSSLSAYSVNWIRQPPGKALEWLAMIWGDGKVVYNSALKSRLTISKDTSKNQVVLTMTNMDPVDTATYYCAGDGYFPYAMDNWGQGSLVTVSS VL: DIVMTQSPDSLSVSLGERATINCRASKSVDSYGNSYMHWYQQKPGQPPKLLIYLASNLESGVPDRFSGSGSGTDFTLTISSLQAEDVAVYYCQQNNEDPRTFGGGTKVEIKR ?
[out] 0.161

[in] Give its IC50, HEK-Blue IL-13Ra1/IL-4Ra STAT6-SEAP reporter assay value. Item: AbJ (antibody, human IgG1, kappa, V domains shown) VH: QVTLRESGPALVKPTQTLTLTCTVSGASLSAYSVNWIRQPPGKALEWLAMIWGDRKKVYNSALKSRLTISKDTSKNQVVLTMTNMDPVDTATYYCAGDGYFPYAMDLWGQGSLVTVSS VL: DIVMTQSPDSLSVSLGERATINCRASKSVDSYGHSYMHWYQQKPGQPPKLLIYWASNLESGVPDRFSGSGSGTDFTLTISSLQAEDVAVYYCQQNNEDPRTFGGGTKVEIKR
[out] 0.167

[in] Give its IC50, HEK-Blue IL-13Ra1/IL-4Ra STAT6-SEAP reporter assay value. Item: AbF (antibody, human IgG1, kappa, V domains shown) VH: QVTLRESGPALVKPTQTLTLTCTVSGASLSRYSVNWIRQPPGKALEWLAMIWGDAKIVYNSALKSRLTISKDTSKNQVVLTMTNMDPVDTATYYCAGDGYFPYAMDNWGQGSLVTVSS VL: DIVMTQSPDSLSVSLGERATINCRASESVDSYGNSYMHWYQQKPGQPPKLLIYLASNLESGVPDRFSGSGSGTDFTLTISSLQAEDVAVYYCQQNNEDPRTFGGGTKVEIKR
[out] 0.126
